Data provenance is patent US20250066745A1.

testDetails: Luminescence activity assay of purified Gaussia luciferase mutants on fluoro-coelenterazine
Assay type: biochemical
Set-up: key: ratio of mutant luminescence intensity to wild-type Gaussia luciferase
measurementParameters: Substrate f-CTZ (Table 16)
recordedEndpoint: Activity of mutant relative to wild-type Gaussia luciferase without the signal peptide
Returns: the value as a bare number; no unit string appended.

For reference, reported Activity of mutant relative to wild-type Gaussia luciferase without the signal peptide for K66N H79K E102D E110P L124M: Gaussia luciferase mutant (protein, SIGNAL (1)..(17), Gaussia luciferase mutant) MGVKVLFALICIAVAEAKPTENNEDFNIVAVASNFATTDLDADRGKLPGKKLPLEVLKEMEANARNAGCTRGCLICLSKIKCTPKMKKFIPGRCHTYEGDKDSAQGGIGPAIVDIPEIPGFKDMEPMEQFIAQVDLCVDCTTGCLKGLANVQCSDLLKKWLPQRCATFASKIQGQVDKIKGAGGD stands at 0.404

What the record says about H79K P84A E102S S103I A104G E110P L124M: Gaussia luciferase mutant (protein, SIGNAL (1)..(17), Gaussia luciferase mutant) MGVKVLFALICIAVAEAKPTENNEDFNIVAVASNFATTDLDADRGKLPGKKLPLEVLKEMEANARKAGCTRGCLICLSKIKCTAKMKKFIPGRCHTYEGDKSIGQGGIGPAIVDIPEIPGFKDMEPMEQFIAQVDLCVDCTTGCLKGLANVQCSDLLKKWLPQRCATFASKIQGQVDKIKGAGGD : Activity of mutant relative to wild-type Gaussia luciferase without the signal peptide is 0.007

The reported Activity of mutant relative to wild-type Gaussia luciferase without the signal peptide of the molecule N27Y V29G A30D V31L A32V S33V A36G T37D L40F Y97*: Gaussia luciferase mutant (protein, SIGNAL (1)..(17), Gaussia luciferase mutant) MGVKVLFALICIAVAEAKPTENNEDFYIGDLVVNFGDTDFDADRGKLPGKKLPLEVLKEMEANARKAGCTRGCLICLSHIKCTPKMKKFIPGRCHTEGDKESAQGGIGEAIVDIPEIPGFKDLEPMEQFIAQVDLCVDCTTGCLKGLANVQCSDLLKKWLPQRCATFASKIQGQVDKIKGAGGD was 0.009

Quick note, Activity of mutant relative to wild-type Gaussia luciferase without the signal peptide for F26C N27D V29L A32V A36I T37A L40I: Gaussia luciferase mutant (protein, SIGNAL (1)..(17), Gaussia luciferase mutant) MGVKVLFALICIAVAEAKPTENNEDCDILAVVSNFIATDIDADRGKLPGKKLPLEVLKEMEANARKAGCTRGCLICLSHIKCTPKMKKFIPGRCHTYEGDKESAQGGIGEAIVDIPEIPGFKDLEPMEQFIAQVDLCVDCTTGCLKGLANVQCSDLLKKWLPQRCATFASKIQGQVDKIKGAGGD landed at 0.141

Consider A17V H79K P84A E102D S103T E110P L124M: Gaussia luciferase mutant (protein, SIGNAL (1)..(17), Gaussia luciferase mutant) MGVKVLFALICIAVAEVKPTENNEDFNIVAVASNFATTDLDADRGKLPGKKLPLEVLKEMEANARKAGCTRGCLICLSKIKCTAKMKKFIPGRCHTYEGDKDTAQGGIGPAIVDIPEIPGFKDMEPMEQFIAQVDLCVDCTTGCLKGLANVQCSDLLKKWLPQRCATFASKIQGQVDKIKGAGGD . Its measured Activity of mutant relative to wild-type Gaussia luciferase without the signal peptide is 0.763

Record summary for F26I N27D V29A A30D V31I S33K A36N T37K L40P: Gaussia luciferase mutant (protein, SIGNAL (1)..(17), Gaussia luciferase mutant) MGVKVLFALICIAVAEAKPTENNEDIDIADIAKNFNKTDPDADRGKLPGKKLPLEVLKEMEANARKAGCTRGCLICLSHIKCTPKMKKFIPGRCHTYEGDKESAQGGIGEAIVDIPEIPGFKDLEPMEQFIAQVDLCVDCTTGCLKGLANVQCSDLLKKWLPQRCATFASKIQGQVDKIKGAGGD : reported Activity of mutant relative to wild-type Gaussia luciferase without the signal peptide = 0.080

Form: molecule = F26N V29S A30D S33D A36T T37A L40G: Gaussia luciferase mutant (protein, SIGNAL (1)..(17), Gaussia luciferase mutant) MGVKVLFALICIAVAEAKPTENNEDNNISDVADNFTATDGDADRGKLPGKKLPLEVLKEMEANARKAGCTRGCLICLSHIKCTPKMKKFIPGRCHTYEGDKESAQGGIGEAIVDIPEIPGFKDLEPMEQFIAQVDLCVDCTTGCLKGLANVQCSDLLKKWLPQRCATFASKIQGQVDKIKGAGGD ; Activity of mutant relative to wild-type Gaussia luciferase without the signal peptide = 0.121

Documented Activity of mutant relative to wild-type Gaussia luciferase without the signal peptide of Q163T T167S S170V G174N K178N A182Y G183A: Gaussia luciferase mutant (protein, SIGNAL (1)..(17), Gaussia luciferase mutant) MGVKVLFALICIAVAEAKPTENNEDFNIVAVASNFATTDLDADRGKLPGKKLPLEVLKEMEANARKAGCTRGCLICLSHIKCTPKMKKFIPGRCHTYEGDKESAQGGIGEAIVDIPEIPGFKDLEPMEQFIAQVDLCVDCTTGCLKGLANVQCSDLLKKWLPTRCASFAVKIQNQVDNIKGYAGD : 0.135

The recorded Activity of mutant relative to wild-type Gaussia luciferase without the signal peptide for entry Q152H Q163D T167G S170V G174K Q175E K178N: Gaussia luciferase mutant (protein, SIGNAL (1)..(17), Gaussia luciferase mutant) MGVKVLFALICIAVAEAKPTENNEDFNIVAVASNFATTDLDADRGKLPGKKLPLEVLKEMEANARKAGCTRGCLICLSHIKCTPKMKKFIPGRCHTYEGDKESAQGGIGEAIVDIPEIPGFKDLEPMEQFIAQVDLCVDCTTGCLKGLANVHCSDLLKKWLPDRCAGFAVKIQKEVDNIKGAGGD equals 0.215
